Some compounds, each annotated with its measured inhibition.
Target Or Test System: SARS-CoV-2 Main Protease (SARS-CoV-2)
Condition Info: 20.0 µM
Outcome Measure: inhibition (%)

INSERT INTO assay_data (compound, result) VALUES
  ('CCC(NC(=O)C(C)n1cncn1)c1ccccc1OCC(=O)N1CCCC1 (stereo unspecified)', 0),
  ('COc1cc(CNC(=O)Cc2ncc[nH]2)c2ccccc2n1', 0),
  ('C=CC(=O)N(c1ccc2c(ccn2C)c1)C(C(=O)NC(C)(C)C)c1cccnc1 (stereo unspecified)', 0),
  ('C#CCN1CCN(C(=O)C=C)CC1', 3.23),
  ('CC(C(=O)Nc1cccc(OC2CC(=O)N2)c1)c1cnccn1 (stereo unspecified)', 0),
  ('CCOCC1CCN(c2ccc(S(N)(=O)=O)cc2)CC1', 21.8);
